As shown below, each of these compounds has a reported growth value.
# System: SK-MEL-5 melanoma
# ASSAY_DETAILS: NCI-60 one-dose screen, 48 h (100 = growth as untreated, 0 = no growth, -100 = all killed)
# PROTOCOL_CONDITIONS: 10 µM unless noted
# Method: Growth inhibition of the SK-MEL-5 human tumor cell line is measured as a screen for anti-cancer activity. Cells are grown in 96 well plates and exposed to the test compound for 48 hours. Compounds are tested at a single concentration, which is 10^-5 M for most compounds. The reported endpoint is percent growth (GI% or GIPRCNT), where numbers from 0 - 100% represent growth inhibition, and numbers from -100% - 0 represent cell death. For example, a value of 40 represents 60% growth inhibition. […]
The panel holds about 83,000 compounds, 20% with a hit somewhere; the sample as a whole holds those more often. Activity calls are given as the source filed them. Rule for the calls: active = growth percent below 10; inactive = the rest.

COMPOUND	growth
O=S1(=O)OC(c2cc(Cl)c(O)c(Br)c2)(c2cc(Cl)c(O)c(Br)c2)c2ccccc21	107% (inactive)
C=CC(=O)N1CCC(Oc2cc3c(Nc4ccc(Cl)c(Cl)c4F)ncnc3cc2OC)CC1	18.7% (inactive)
CCCCCCCC(=O)SCC/C=C/[C@@H]1CC(=O)NCc2cc(ccn2)C2=N[C@@](C)(CS2)C(=O)N[C@@H](C(C)C)C(=O)O1	-95.3% (active)
Cn1c(Nc2ccc(C(F)(F)F)cc2)nc2cc(Oc3ccnc(-c4ncc(C(F)(F)F)[nH]4)c3)ccc21	39% (inactive)
CC(C)(C)c1ccc(Cn2cc(CSc3nc4ccccc4s3)nn2)cc1	106% (inactive)
COc1cc2c(cc1OCCCCN1CCN(CC(=O)Nc3ccc(Cl)cc3C(=O)c3ccccc3Cl)CC1)N=CC1CCCN1C2=O (stereo not drawn)	-92.6% (active)
O=C(c1ccc(F)c(F)c1Nc1ccc(I)cc1F)N1CC(O)([C@@H]2CCCCN2)C1	-92.9% (active)
Nc1cc(C(F)(F)F)c(-c2cc(N3CCOCC3)nc(N3CCOCC3)n2)cn1	-75.5% (active)
CCOc1cc2ncc(C#N)c(Nc3ccc(OCc4ccccn4)c(Cl)c3)c2cc1NC(=O)/C=C/CN(C)C	14.8% (inactive)
CNC(=O)c1cc(COc2nnc(Nc3ccc(Cl)cc3)c3ccoc23)ccn1	-0.858% (active)
Cn1ccnc1C(=O)/C=C/c1ccc(CC(=O)Nc2ccc(Br)cc2)cc1	62.9% (inactive)
CC(=O)Nc1cccc(-n2c(=O)n(C3CC3)c(=O)c3c(Nc4ccc(I)cc4F)n(C)c(=O)c(C)c32)c1	32.7% (inactive)
O=C(Nc1ccc(N=Nc2ccccc2)cc1)c1cccc2ccccc12	59% (inactive)

Entry source: PubChem BioAssay (NCI)
